Data provenance is patent US20100068208A1.

Molecular target: T1, human TGR12 (untagged) (human, UniProt Q96LB1 1-330)
T1 sequence: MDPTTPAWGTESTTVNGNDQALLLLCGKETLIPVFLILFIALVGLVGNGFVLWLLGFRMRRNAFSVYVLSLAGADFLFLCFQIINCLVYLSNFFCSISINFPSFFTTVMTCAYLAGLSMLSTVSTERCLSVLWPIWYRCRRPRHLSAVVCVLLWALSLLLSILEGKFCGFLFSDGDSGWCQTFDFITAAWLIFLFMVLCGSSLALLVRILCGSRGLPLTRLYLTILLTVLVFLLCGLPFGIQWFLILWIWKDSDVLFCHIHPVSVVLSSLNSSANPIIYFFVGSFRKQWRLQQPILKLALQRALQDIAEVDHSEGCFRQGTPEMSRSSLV
Test: cell-based or functional assay
Where no end group is shown, it is not given here.
Each entry below lists one item and its recorded degranulation of LAD 2 (beta-hexosaminidase release, % of total) at 10 nM value.

Record excerpt, results attached:
BINDER | OBS VALUE
HSDGIFTDSYSRYRKQMAVKKYLAAVLGKRYKQRVKNK (peptide, UniProt P18509 132-169, looked up, not fully specified; ends and bridges not checked, domain: PACAP-38) [human PACAP38 (pituitary adenylate cyclase activating polypeptide 38)] | 7.4%
HSDGIFTDSYSRYRKQMAVKKYLAAVL (peptide, UniProt P18509 132-158, looked up, not fully specified; ends and bridges not checked, domain: PACAP-27) [human PACAP27 (pituitary adenylate cyclase activating polypeptide 27)] | 2.6%
HSDAVFTDNYTRLRKQMAVKKYLNSILN (peptide, UniProt P01282 125-152, looked up, not fully specified; ends and bridges not checked, domain: VIP; also called vasoactive intestinal peptide) [human VIP (vasoactive intestinal polypeptide)] | 1.5%

Turning to the following binder.
So what does the record say about degranulation of LAD 2 (beta-hexosaminidase release, % of total) at 10 nM for DRMPCRNFFWKTFSSCK (peptide, UniProt O00230 89-105, looked up, not fully specified; ends and bridges not checked) [human cortistatin-17] ? 1.6%
